These data points were gathered from ChEMBL document CHEMBL1138362.

Property: EC50; scope: individual compounds
system: Human immunodeficiency virus 1; assay: Antiviral activity against HIV1 with reverse transcriptase Y181C mutation in MT4 cells after 5 days by MTT method; type: functional, organism-based; conditions: Human immunodeficiency virus 1, MT4, 120 h
Recorded Endpoint: EC50

Substance Smiles: COc1ccc(/C=C/Sc2nc(Cc3c(Cl)cccc3Cl)c(C)c(=O)[nH]2)cc1
Result: > 57.7 µM
//
Substance Smiles: Cc1c(Cc2ccc(C#N)cc2)nc(SCc2ccc([N+](=O)[O-])cc2)[nH]c1=O
Result: > 26.4 µM
//
Substance Smiles: CCCCc1ccc(CSc2nc(Cc3ccc(C#N)cc3)c(C)c(=O)[nH]2)cc1
Result: > 79.9 µM

* * *

biological target: UniProt:Q72547; assay: Antiviral activity against wild type HIV1 reverse transcriptase

Substance Smiles: Cc1c(Cc2ccc(C#N)cc2)nc(SCC(=O)c2ccccc2)[nH]c1=O
Target: UniProt:Q72547
ID50: > 20 µM
//
Substance Smiles: Cc1c(Cc2c(Cl)cccc2Cl)nc(S/C=C/c2ccc(F)cc2)[nH]c1=O
Target: UniProt:Q72547
ID50: > 20 µM
//
Substance Smiles: Cc1c(Cc2c(F)cccc2F)nc(SCc2ccc3c(c2)OCO3)[nH]c1=O
Target: UniProt:Q72547
ID50: > 20 µM

* * *

tested on: Human immunodeficiency virus 1; assay: Antiviral activity against HIV1 with reverse transcriptase Y181C mutation in MT4 cells after 5 days by MTT method; type: functional, organism-based; details: Human immunodeficiency virus 1, MT4, 120 h
pEC50: −log10 of the molar value.
Property: pEC50; scope: individual compounds
Recorded Endpoint: pEC50

Compound: Cc1c(Cc2c(Cl)cccc2Cl)nc(SC/C=C/c2ccc([N+](=O)[O-])cc2)[nH]c1=O
Recorded Endpoint: pEC50
Result: < 4.97
//
Compound: CCc1c(Cc2c(Cl)cccc2Cl)nc(SC/C=C/c2ccc(OC)cc2)[nH]c1=O
Recorded Endpoint: pEC50
Result: < 6.72
//
Compound: Cc1c(Cc2c(F)cccc2F)nc(SC/C=C/c2ccc([N+](=O)[O-])cc2)[nH]c1=O
Recorded Endpoint: pEC50
Result: < 4.93
//
Compound: Cc1c(C(C)c2c(F)cccc2F)nc(SC/C=C/c2ccc(C#N)cc2)[nH]c1=O (centres undefined)
Recorded Endpoint: pEC50
Result: < 4.23
//
Compound: CC(=O)Oc1ccc(CSc2nc(Cc3c(F)cccc3F)c(C)c(=O)[nH]2)cc1
Recorded Endpoint: pEC50
Result: < 4.22
//
Compound: Cc1c(C(C)c2c(F)cccc2F)nc(SC/C=C/c2ccc([N+](=O)[O-])cc2)[nH]c1=O (centres undefined)
Recorded Endpoint: pEC50
Result: < 4.95
//
Compound: Cc1c(C(C)c2c(Cl)cccc2Cl)nc(SC/C=C/c2ccc([N+](=O)[O-])cc2)[nH]c1=O (centres undefined)
Recorded Endpoint: pEC50
Result: < 4.39
//
Compound: COc1ccc(/C=C/CSc2nc(Cc3c(F)cccc3F)c(C)c(=O)[nH]2)cc1
Recorded Endpoint: pEC50
Result: < 5.41
//
Compound: COc1ccc(/C=C/Sc2nc(C(C)c3c(Cl)cccc3Cl)c(C)c(=O)[nH]2)cc1 (centres undefined)
Recorded Endpoint: pEC50
Result: < 4.25

* * *

Property: EC50; scope: individual molecules
system: Human immunodeficiency virus 1; experiment: Antiviral activity against HIV1 with reverse transcriptase Y181C mutation in MT4 cells after 5 days by MTT method; format: functional, organism-based; settings: Human immunodeficiency virus 1, MT4, 120 h
Recorded Endpoint: EC50 (µM)

Molecule: CCc1c(C(C)c2c(F)cccc2F)nc(SC/C=C/c2ccc(C#N)cc2)[nH]c1=O (configuration not stated)
Target: Human immunodeficiency virus 1
Unit Descriptor: µM
Limit Operator: >
Number: 27.2
--
Molecule: Cc1c(Cc2c(Cl)cccc2Cl)nc(SC/C=C/c2ccc(N(C)C)cc2)[nH]c1=O
Target: Human immunodeficiency virus 1
Unit Descriptor: µM
Limit Operator: >
Number: 54.4
--
Molecule: COc1ccc(COCCSc2nc(Cc3c(F)cccc3F)c(C)c(=O)[nH]2)cc1
Target: Human immunodeficiency virus 1
Unit Descriptor: µM
Limit Operator: >
Number: 55.9
--
Molecule: Cc1c(C(C)c2c(F)cccc2F)nc(SCc2ccc(C#N)cc2)[nH]c1=O (configuration not stated)
Target: Human immunodeficiency virus 1
Unit Descriptor: µM
Limit Operator: =
Number: 1.55
--
Molecule: COc1ccc(/C=C/CSc2nc(C(C)c3c(Cl)cccc3Cl)c(C)c(=O)[nH]2)cc1 (configuration not stated)
Target: Human immunodeficiency virus 1
Unit Descriptor: µM
Limit Operator: =
Number: 3.6
--
Molecule: CC(=O)Oc1ccc(CSc2nc(Cc3c(Cl)cccc3Cl)c(C)c(=O)[nH]2)cc1
Target: Human immunodeficiency virus 1
Unit Descriptor: µM
Limit Operator: =
Number: 8.64
--
Molecule: Cc1c(Cc2c(F)cccc2F)nc(SCC(=O)c2ccc([N+](=O)[O-])cc2)[nH]c1=O
Target: Human immunodeficiency virus 1
Unit Descriptor: µM
Limit Operator: =
Number: 4.18

* * *

Property: ID50; scope: individual compounds
molecular target: UniProt:Q72547; assay: Antiviral activity against wild type HIV1 reverse transcriptase
Recorded Endpoint: ID50

Compound: CCc1c(Cc2c(Cl)cccc2Cl)nc(SC/C=C/c2ccc(C#N)cc2)[nH]c1=O
Result: 188 nM
//
Compound: COc1ccc(COCCSc2nc(Cc3c(Cl)cccc3Cl)c(C)c(=O)[nH]2)cc1
Result: 63 nM
//
Compound: COc1ccc(/C=C/CSc2nc(C(C)c3c(Cl)cccc3Cl)c(C)c(=O)[nH]2)cc1 (stereo not given)
Result: 18 nM
//
Compound: CCC(c1nc(SCc2ccc(OC)cc2)[nH]c(=O)c1C)c1c(F)cccc1F (stereo not given)
Result: 47 nM
//
Compound: CC(=O)Oc1ccc(CSc2nc(Cc3c(Cl)cccc3Cl)c(C)c(=O)[nH]2)cc1
Result: 85 nM
//
Compound: COc1ccc(CSc2nc(C(C)c3c(Cl)cccc3Cl)c(C)c(=O)[nH]2)cc1 (stereo not given)
Result: 770 nM
//
Compound: CCc1c(Cc2c(Cl)cccc2Cl)nc(SC/C=C/c2ccc(OC)cc2)[nH]c1=O
Result: 56 nM
//
Compound: CCc1c(Cc2c(F)cccc2F)nc(SCCc2ccc(OC)cc2)[nH]c1=O
Result: 22 nM
//
Compound: Cc1c(C(C)c2c(Cl)cccc2Cl)nc(SCc2ccc([N+](=O)[O-])cc2)[nH]c1=O (stereo not given)
Result: 408 nM
//
Compound: CCc1c(Cc2c(Cl)cccc2Cl)nc(SCc2ccc(OC)cc2)[nH]c1=O
Result: 32 nM

* * *

tested on: Human immunodeficiency virus 1 [K103N]; test: Antiviral activity against HIV1 reverse transcriptase K103N mutant
Property: ID50; scope: individual compounds
Recorded Endpoint: ID50

Compound: CCc1c(C(C)c2c(F)cccc2F)nc(SCCOCc2ccc(OC)cc2)[nH]c1=O (stereo not drawn)
Result: > 20 µM

Compound: Cc1c(C(C)c2c(F)cccc2F)nc(SCc2ccc(C#N)cc2)[nH]c1=O (stereo not drawn)
Result: 0.7 µM

Compound: Cc1c(C(C)c2c(F)cccc2F)nc(SCc2ccc([N+](=O)[O-])cc2)[nH]c1=O (stereo not drawn)
Result: 0.6 µM

Compound: Cc1c(C(C)c2c(F)cccc2F)nc(SC/C=C/c2ccc([N+](=O)[O-])cc2)[nH]c1=O (stereo not drawn)
Result: > 20 µM

Compound: COC(=O)c1ccc(CSc2nc(Cc3c(F)cccc3F)c(C)c(=O)[nH]2)cc1
Result: > 20 µM

Compound: COc1ccc(/C=C/Sc2nc(C(C)c3c(Cl)cccc3Cl)c(C)c(=O)[nH]2)cc1 (stereo not drawn)
Result: > 20 µM

Compound: Cc1c(C(C)c2c(Cl)cccc2Cl)nc(SC/C=C/c2ccc([N+](=O)[O-])cc2)[nH]c1=O (stereo not drawn)
Result: > 20 µM

Compound: COc1ccc(CSc2nc(Cc3c(F)cccc3F)c(C)c(=O)[nH]2)cc1OC
Result: > 20 µM

Compound: Cc1c(Cc2c(Cl)cccc2Cl)nc(S/C=C/c2ccc(F)cc2)[nH]c1=O
Result: > 20 µM

Compound: CCc1c(C(C)c2c(F)cccc2F)nc(SC/C=C/c2ccc(C#N)cc2)[nH]c1=O (stereo not drawn)
Result: > 20 µM

Compound: COc1ccc(CCSc2nc(C(C)c3c(Cl)cccc3Cl)c(C)c(=O)[nH]2)cc1 (stereo not drawn)
Result: > 20 µM

Compound: COc1ccc(CSc2nc(Cc3ccc(C#N)cc3)c(C)c(=O)[nH]2)cc1
Result: > 20 µM

Compound: COc1ccc(/C=C/CSc2nc(C(C)c3c(F)cccc3F)c(C)c(=O)[nH]2)cc1 (stereo not drawn)
Result: 3.7 µM

Compound: CCc1c(Cc2c(F)cccc2F)nc(SCCc2ccc(OC)cc2)[nH]c1=O
Result: > 20 µM

Compound: CCc1c(Cc2c(Cl)cccc2Cl)nc(SCc2ccc([N+](=O)[O-])cc2)[nH]c1=O
Result: > 20 µM

Compound: Cc1c(Cc2c(F)cccc2F)nc(SC/C=C/c2ccc([N+](=O)[O-])cc2)[nH]c1=O
Result: > 20 µM

Compound: CCc1c(Cc2c(F)cccc2F)nc(SCc2ccc(C#N)cc2)[nH]c1=O
Result: 7.5 µM

Compound: CC(=O)Oc1ccc(CSc2nc(Cc3c(F)cccc3F)c(C)c(=O)[nH]2)cc1
Result: > 20 µM

Compound: Cc1c(Cc2ccc(C#N)cc2)nc(SCc2ccc([N+](=O)[O-])cc2)[nH]c1=O
Result: > 20 µM

Compound: CCc1c(Cc2c(F)cccc2F)nc(SCc2ccc([N+](=O)[O-])cc2)[nH]c1=O
Result: > 20 µM

Compound: COc1ccc(CCCSc2nc(C(C)c3c(Cl)cccc3Cl)c(C)c(=O)[nH]2)cc1 (stereo not drawn)
Result: > 20 µM

Compound: Cc1c(C(C)c2c(F)cccc2F)nc(SC/C=C/c2ccc(C#N)cc2)[nH]c1=O (stereo not drawn)
Result: > 20 µM

Compound: Cc1c(Cc2c(F)cccc2F)nc(SCc2ccc3c(c2)OCO3)[nH]c1=O
Result: > 20 µM

Compound: Cc1c(C(C)c2c(Cl)cccc2Cl)nc(SCc2ccc([N+](=O)[O-])cc2)[nH]c1=O (stereo not drawn)
Result: > 20 µM

Compound: CCOc1ccc(CSc2nc(Cc3c(F)cccc3F)c(C)c(=O)[nH]2)cc1
Result: > 20 µM

Compound: CCCCc1ccc(CSc2nc(Cc3ccc(C#N)cc3)c(C)c(=O)[nH]2)cc1
Result: > 20 µM

Compound: CCc1c(C(C)c2c(F)cccc2F)nc(SC/C=C/c2ccc([N+](=O)[O-])cc2)[nH]c1=O (stereo not drawn)
Result: > 20 µM

Compound: COc1ccc(CCSc2nc(Cc3c(F)cccc3F)c(C)c(=O)[nH]2)cc1
Result: 3.5 µM

Compound: COc1ccc(COCCSc2nc(Cc3c(Cl)cccc3Cl)c(C)c(=O)[nH]2)cc1
Result: 56 µM

Compound: COc1ccc(CSc2nc(C(C)c3c(Cl)cccc3Cl)c(C)c(=O)[nH]2)cc1 (stereo not drawn)
Result: > 20 µM

Compound: COc1ccc(C#CCSc2nc(C(C)c3c(Cl)cccc3Cl)c(C)c(=O)[nH]2)cc1 (stereo not drawn)
Result: > 20 µM

Compound: COc1ccc(CSc2nc(C(C)c3c(F)cccc3F)c(C)c(=O)[nH]2)cc1 (stereo not drawn)
Result: 45 µM

Compound: COc1ccc(COCCSc2nc(Cc3c(F)cccc3F)c(C)c(=O)[nH]2)cc1
Result: > 20 µM
